Numbers sourced from ChEMBL document CHEMBL1136932.

# Target or system: D-aspartate oxidase (Homo sapiens)
# Sequence (Q99489 whole entry): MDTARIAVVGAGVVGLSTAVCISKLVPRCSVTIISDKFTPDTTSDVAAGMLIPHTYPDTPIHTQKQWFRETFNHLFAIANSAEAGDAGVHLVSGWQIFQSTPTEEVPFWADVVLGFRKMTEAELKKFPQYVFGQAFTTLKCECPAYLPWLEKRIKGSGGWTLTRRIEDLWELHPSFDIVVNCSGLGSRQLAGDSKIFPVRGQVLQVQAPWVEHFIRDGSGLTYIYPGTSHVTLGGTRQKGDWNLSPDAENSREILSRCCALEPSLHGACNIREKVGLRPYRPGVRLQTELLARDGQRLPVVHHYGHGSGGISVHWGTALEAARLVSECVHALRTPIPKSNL
# Assay text: Inhibition of human recombinant DDO expressed in sf9 insect cells assessed as degradation of D-aspartic acid by fluorescence assay
pIC50: −log10 of the molar value.
Entries annotated with measured pIC50

Please look at this molecule and report its pIC50: O=c1[nH]c2ccc(Cl)cc2cc1O
< 4.30

* * *

# Target or system: UniProtKB Q99489
# Assay text: Inhibition of human recombinant DDO expressed in sf9 insect cells assessed as degradation of D-aspartic acid by fluorescence assay
pIC50: −log10 of the molar value.
Reported metric: pIC50

Here are 5 compounds together with their reported answers.
In [3]: df
Out[3]:
           structure_string  recorded_result
0      O=c1[nH]c2cnccc2cc1O           < 4.30
1     O=C(O)c1cc2occc2[nH]1           < 4.71
2  O=c1[nH]c2c(Cl)cccc2cc1O           < 4.36
3      O=c1[nH]c2cccnc2cc1O           < 4.30
4      O=c1[nH]c2ccncc2cc1O           < 4.44

Please look at this compound and report its pIC50: O=c1[nH]c2ncccc2cc1O
< 5.12

Please look at this compound and report its pIC50: O=c1[nH]c2nccnc2cc1O
< 4.30

Please look at this compound and report its pIC50: CCc1cccc2cc(O)c(=O)[nH]c12
< 4.30
